Below: a set of entries, each annotated with reported IC50.
# tested.system: human MCH receptor (Homo sapiens, UniProt Q99705)
# Sequence (Q99705 whole entry): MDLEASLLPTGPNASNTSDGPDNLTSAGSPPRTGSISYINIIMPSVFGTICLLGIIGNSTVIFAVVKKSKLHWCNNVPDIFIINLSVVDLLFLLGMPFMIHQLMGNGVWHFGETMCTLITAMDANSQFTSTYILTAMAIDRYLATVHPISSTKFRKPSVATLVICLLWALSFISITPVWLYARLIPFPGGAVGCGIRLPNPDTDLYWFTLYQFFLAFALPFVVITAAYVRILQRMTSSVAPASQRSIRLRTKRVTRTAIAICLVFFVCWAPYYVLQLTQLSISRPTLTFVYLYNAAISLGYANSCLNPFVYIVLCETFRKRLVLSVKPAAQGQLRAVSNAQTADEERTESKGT
# test.details: Functional IC50 of MCH1R antagonists: cellular calcium flux (FLIPR) after addition of agonist MCH
# experimental.parameters: recombinant HEK293 cell line expressing the human MCH receptor
# From the text: Influence on the MCH receptor in vitro; determination of functional IC50 values of MCH1R antagonists Cloning of the cDNA for the human MCH receptor, preparation of a recombinant HEK293 cell line which expresses the human MCH receptor, and functional measurements with the recombinant cell line took place in analogy to the description by Audinot et al. (J. Biol. Chem. 276, 13554-13562, 2001). […]
endpoint.name: IC50 (nM)

compound	tested.system	endpoint.name	numeric.value
CCC(O)C#Cc1ccc2c(c1)CCN(c1ccc(O[C@H]3C[C@H]4CC[C@@H](C3)N4C)c(Cl)c1)C2=O (stereo partly drawn)	human MCH receptor (Homo sapiens, UniProt Q99705)	IC50	780
CCCCOc1ccc2c(c1)CCN(c1ccc(O[C@H]3C[C@H]4CC[C@@H](C3)N4CCCF)cc1)C2=O	human MCH receptor (Homo sapiens, UniProt Q99705)	IC50	4390
Cc1ccc(-c2cc3c(s2)C(=O)N(c2ccc(OCCN(C)C)cc2)CC3)cc1	human MCH receptor (Homo sapiens, UniProt Q99705)	IC50	4900
Cc1cc(-n2ccc3cc(OC[C@H]4CCCO4)ccc3c2=O)ccc1O[C@H]1C[C@H]2CC[C@@H](C1)N2CC(C)(C)O	human MCH receptor (Homo sapiens, UniProt Q99705)	IC50	490
COc1cc(-n2ccc3cc(OC[C@@H]4CCCO4)ccc3c2=O)ccc1OCCN1C2CCC1CC2	human MCH receptor (Homo sapiens, UniProt Q99705)	IC50	210
CN1[C@@H]2CC[C@H]1C[C@@H](Oc1ccc(-n3ccc4cc(OC[C@@H]5CCCO5)ccc4c3=O)cc1)C2	human MCH receptor (Homo sapiens, UniProt Q99705)	IC50	160
CCCCOc1ccc2c(c1)CCN(c1ccc(OCCN3CCCC3)c(OC)c1)C2=O	human MCH receptor (Homo sapiens, UniProt Q99705)	IC50	270
COCCN1[C@@H]2CC[C@H]1C[C@@H](Oc1ccc(-n3ccc4cc(OC[C@H]5CCCO5)ccc4c3=O)cc1C)C2	human MCH receptor (Homo sapiens, UniProt Q99705)	IC50	140
O=c1c2ccc(OC[C@H]3CCCO3)cc2ccn1-c1ccc(O[C@H]2C[C@H]3CC[C@@H](C2)N3C2CC2)c(F)c1	human MCH receptor (Homo sapiens, UniProt Q99705)	IC50	5010
CN1[C@@H]2CC[C@H]1C[C@@H](Oc1ccc(N3CCc4cc(OC5CSC5)ccc4C3=O)cc1Cl)C2	human MCH receptor (Homo sapiens, UniProt Q99705)	IC50	14800
CN1[C@@H]2CC[C@H]1C[C@@H](Oc1ccc(N3CCc4cc(C#CC(C)(C)O)ccc4C3=O)cc1Cl)C2	human MCH receptor (Homo sapiens, UniProt Q99705)	IC50	1110
CCCCOc1ccc2c(c1)CCN(c1ccc(OC[C@@H]3CCCN4CCCC[C@H]34)cc1)C2=O	human MCH receptor (Homo sapiens, UniProt Q99705)	IC50	870
COc1cc(-n2ccc3cc(OC[C@@H]4CCCO4)ccc3c2=O)ccc1OCCN1CC2CCCCC2C1 (stereo partly drawn)	human MCH receptor (Homo sapiens, UniProt Q99705)	IC50	250
Cc1cc(-n2ccc3cc(OC[C@H]4CCCO4)ccc3c2=O)ccc1O[C@H]1C[C@H]2CC[C@@H](C1)N2Cc1ncc[nH]1	human MCH receptor (Homo sapiens, UniProt Q99705)	IC50	460
COCCOc1ccc2c(c1)CCN(c1ccc(OCCN3CCCC3)c(OC)c1)C2=O	human MCH receptor (Homo sapiens, UniProt Q99705)	IC50	5440
CN1[C@@H]2CC[C@H]1C[C@@H](Oc1ccc(N3CCc4cc(OCC5CCC5)ccc4C3=O)cc1Cl)C2	human MCH receptor (Homo sapiens, UniProt Q99705)	IC50	1140
CN1[C@@H]2CC[C@H]1C[C@@H](Oc1ccc(N3CCc4cc(C#CC5(O)CCCC5)ccc4C3=O)cc1Cl)C2	human MCH receptor (Homo sapiens, UniProt Q99705)	IC50	1150
COc1cc(-n2ccc3cc(OC[C@@H]4CCCO4)ccc3c2=O)ccc1OCCN1CCCC1	human MCH receptor (Homo sapiens, UniProt Q99705)	IC50	130
COc1cc(-n2ccc3cc(OC[C@H]4CCCO4)ccc3c2=O)ccc1OC1CN2CCC1CC2 (stereo partly drawn)	human MCH receptor (Homo sapiens, UniProt Q99705)	IC50	1180
COc1cc(-n2ccc3cc(OC[C@@H]4CCCO4)ccc3c2=O)ccc1OCCN1CC2CCC2C1 (stereo partly drawn)	human MCH receptor (Homo sapiens, UniProt Q99705)	IC50	840
CCCCOc1ccc2c(c1)CCN(c1ccc(O[C@H]3C[C@H]4CC[C@@H](C3)N4C)c(Cl)c1)C2=O	human MCH receptor (Homo sapiens, UniProt Q99705)	IC50	930

Numbers sourced from patent US8501771B2.
